Biological target: T1, NHERF3_1, Q5T2W1
T1 sequence (Q5T2W1 4-100, limits assumed, looked up): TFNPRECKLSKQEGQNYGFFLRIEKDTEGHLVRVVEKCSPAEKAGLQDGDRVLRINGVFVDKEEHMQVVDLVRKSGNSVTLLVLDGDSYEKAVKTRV
Test: holdup assay
Parameters: key: below the threshold = too weak to quantify, mostly under pKd 3.1 to 4
Settings: plain residues with an end cap or a label only (N-terminal biotin on a linker: ttds)
quantity: pKd

1. PRVKPQRSKV [PPP1R13L, Q8WUF5] :: below the threshold
2. RLPKIKETTV [FRMPD4, Q14CM0] :: below the threshold
3. SGSRPSATVV [HPV73-E6, Q82005] :: below the threshold
4. EVVHTPETSV [SLC16A3, O15427] :: below the threshold

Now, please, on to the next binder.
stdin: Answer with reported pKd of FHPLGADSQV [SLC2A1, P11166]
stdout: below the threshold
